Data origin: patent US10227653B2

# assay.system: PDZ domain of the human PTPN4 protein (PTPN4-PDZ) (Homo sapiens, UniProt P29074)
# Construct: the PDZ domain of the human PTPN4 protein
# Sequence (P29074 517-589 limits assumed): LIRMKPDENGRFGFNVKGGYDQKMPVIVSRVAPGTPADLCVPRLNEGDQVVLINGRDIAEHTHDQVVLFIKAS
# assay.summary: ITC with PTPN4-PDZ
# Assay type: binding
pKd: −log10 of the molar value.
property.name: pKd

INSERT INTO results (substance, assay_system, data_value) VALUES
  ('ATT13: polypeptide ending with the MAST-2 binding domain […] (SEQ ID NO:235) (SWESHKSGGETRL; not fully specified)', 'PDZ domain of the human PTPN4 protein (PTPN4-PDZ) (Homo sapiens, UniProt P29074)', 3.80);
